- Study target: PKCα (Homo sapiens)
- Assay: PKCα kinase Caliper assay
- Type: biochemical
- Assay setup: PKCα Caliper assay; read-out: PKC IC50
Recorded metric: IC50 (nM)
Reply numerically in nM, unit not repeated.

Solved entries (count: 5):
{"Molecular string": "CC(C)[C@H]1O[C@@H](c2ccncc2NC(=O)c2nc(-c3ccccc3)cnc2N)C[C@@H](N)[C@@H]1O", "Study target": "PKCα (Homo sapiens)", "Quantity unit": "nM", "IC50": 75}
{"Molecular string": "Nc1ncc(-c2ccccc2)nc1C(=O)Nc1cnccc1[C@@H]1C[C@H](N)[C@]2(O)CCCC[C@@H]2O1", "Study target": "PKCα (Homo sapiens)", "Quantity unit": "nM", "IC50": 7200}
{"Molecular string": "Nc1ncc(-c2ccccc2)nc1C(=O)Nc1cnccc1[C@H]1C[C@@H](N)[C@H]2CCC[C@H]2O1", "Study target": "PKCα (Homo sapiens)", "Quantity unit": "nM", "IC50": 31}
{"Molecular string": "CC[C@H]1O[C@@H](c2ccncc2NC(=O)c2nc(-c3ccccc3)cnc2N)C[C@@H](N)[C@]1(C)O", "Study target": "PKCα (Homo sapiens)", "Quantity unit": "nM", "IC50": 220}
{"Molecular string": "Nc1ncc(-c2ccccc2)nc1C(=O)Nc1cnccc1[C@@H]1C[C@H](N)[C@@H](O)[C@H](C2CC2)O1", "Study target": "PKCα (Homo sapiens)", "Quantity unit": "nM", "IC50": 140}

# input for lookup
Given item `C[C@]1(O)[C@H](N)C[C@H](c2ccncc2NC(=O)c2nc(-c3ccccc3)cnc2N)OC12CC2` , the value recorded as its IC50 is 84
